Tested on: bacterial cells expressing pT7PMS134/V5
Assay: Overnight growth in antibiotic, MMR defective bacteria expressing PMS2-134
Type: cell-based
Conditions: overnight at 37° C., 10^7 cells in 5 ml LB broth plus antibiotic at 0.5X MIC
# maps each entry to its Cell # (X10^9) (pT7PMS134V5)

MOLECULE	TARGET OR SYSTEM	Cell # (X10^9) (pT7PMS134V5)
CCn1cc(C(=O)O)c(=O)c2cc(F)c(N3CCNCC3)cc21 [Norfloxacin]	bacterial cells expressing pT7PMS134/V5	1.40 X10^9

Lookup: Requested field: Cell # (X10^9) (pT7PMS134V5). Item: CN(C)[C@@H]1C(O)=C(C(N)=O)C(=O)[C@@]2(O)C(O)=C3C(=O)c4c(O)cccc4[C@@](C)(O)[C@H]3C[C@@H]12 [Tetracycline]
Found: 1.10 X10^9

Lookup: Return reported Cell # (X10^9) (pT7PMS134V5); argument: CC1COc2c(N3CCN(C)CC3)c(F)cc3c(=O)c(C(=O)O)cn1c23 (stereo not shown) [Ofloxacin]
Found: 1.20 X10^9

Lookup: Report Cell # (X10^9) (pT7PMS134V5) for CCn1cc(C(=O)O)c(=O)c2ccc(C)nc21 [Nalidixic Acid] please.
Found: 0.97 X10^9
